The measured values listed here are drawn from patent US9221868B2.

test: physchem; conditions: buffer, pH 1.4
Readout type: half-life (h)
Answer in h, number only, no unit symbol.

For record [BH3-][P+](O)(OCC1OC(n2cc(OC)c(=O)[nH]c2=O)C(O)C1O)OP(=O)(O)O (single isomer, unassigned) [Analogue 13A] the listed half-life is 16.9

====

biological target: P2Y2-R (Homo sapiens); test: [Ca2+]i increase in 1321N1 astrocytoma cells expressing P2Y2-R; type: cell-based; design: expressed in transfected cells; host or cells: 1321N1 astrocytoma cells; settings: 1321N1 astrocytoma cells, [Ca2+]i; n.d.r = no detectable response up to 100 μM; read-out: Potencies (EC50) at the P2Y2-R
Sequence (P41231 whole entry): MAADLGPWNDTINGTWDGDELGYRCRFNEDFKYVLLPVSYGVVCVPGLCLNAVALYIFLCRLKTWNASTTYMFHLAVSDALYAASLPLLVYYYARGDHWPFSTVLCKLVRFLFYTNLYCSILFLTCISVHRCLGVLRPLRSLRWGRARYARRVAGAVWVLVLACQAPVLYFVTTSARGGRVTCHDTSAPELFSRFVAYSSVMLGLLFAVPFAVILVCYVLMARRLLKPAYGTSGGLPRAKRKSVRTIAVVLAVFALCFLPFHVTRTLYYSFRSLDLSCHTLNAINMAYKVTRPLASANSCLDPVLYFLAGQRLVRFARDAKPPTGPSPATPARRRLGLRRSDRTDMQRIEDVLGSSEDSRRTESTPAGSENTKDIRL
Readout type: EC50 (nM)
Answer in nM, number only, no unit symbol.

For record O=c1ccn([C@@H]2O[C@H](COP(=O)(O)OP(=O)(O)OP(=O)(O)O)[C@@H](O)[C@H]2O)c(=O)[nH]1 [UTP, reference compound] the listed EC50 is 140

====

Target: P2Y6-R (Homo sapiens, UniProt Q15077)
Sequence (Q15077 whole entry): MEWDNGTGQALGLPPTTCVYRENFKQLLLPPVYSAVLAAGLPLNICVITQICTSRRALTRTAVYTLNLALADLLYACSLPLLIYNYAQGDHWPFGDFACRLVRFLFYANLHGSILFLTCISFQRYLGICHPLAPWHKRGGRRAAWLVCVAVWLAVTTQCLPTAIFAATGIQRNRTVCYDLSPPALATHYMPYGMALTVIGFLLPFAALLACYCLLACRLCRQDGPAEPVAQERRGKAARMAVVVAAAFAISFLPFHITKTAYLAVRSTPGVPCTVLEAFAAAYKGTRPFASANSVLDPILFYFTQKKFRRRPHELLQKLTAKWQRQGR
Assay: [Ca2+]i increase in 1321N1 astrocytoma cells expressing P2Y6-R
Settings: 1321N1 astrocytoma cells, [Ca2+]i; read-out: Potencies (EC50) at the P2Y6-R
Description: Green fluorescent protein (GFP) constructs of human P2Y2-R, P2Y4-R and P2Y6-R were expressed in 1321N1 astrocytoma cells, which lack endogenous expression of P2X- and P2Y-receptors. The respective cDNA of the receptor gene was cloned into a pEGFPN1 vector. […] The expression and cell membrane localization of the respective P2Y receptors was confirmed through the analysis of the GFP fluorescence. […]
Readout type: EC50 (nM)

(I) [BH3-][P+](O)(OCC1OC(n2cc(OC)c(=O)[nH]c2=O)C(O)C1O)OP(=O)(O)OP(=O)(O)OCC1OC(n2cc(OC)c(=O)[nH]c2=O)C(O)C1O (single isomer, unassigned) [Analogue 16A]
(II) [BH3-][P+](O)(OCC1OC(n2cc(OC)c(=O)[nH]c2=O)C(O)C1O)OP(=O)(O)O (single isomer, unassigned) [Analogue 13A]
(III) [BH3-][P+](O)(OCC1OC(n2cc(OC)c(=O)[nH]c2=O)C(O)C1O)OP(=O)(O)O (single isomer, unassigned) [Analogue 13B]
Form: Sort by [EC50] Order [ ascending ] Answer format: list of labels, ordered as asked.
II, I, III
(II: 8 nM, I: 60 nM, III: 4300 nM)

====

target: P2Y6-R (Homo sapiens); assay: [Ca2+]i increase in 1321N1 astrocytoma cells expressing P2Y6-R; settings: 1321N1 astrocytoma cells, [Ca2+]i; read-out: Potencies (EC50) at the P2Y6-R
Readout type: EC50 (µM)

Consider the following illustrative entries.
Molecule	Readout type	Endpoint result
[BH3-][P+](O)(OC[C@H]1O[C@@H](n2cc(OC)c(=O)[nH]c2=O)[C@H](O)[C@@H]1O)OP(=O)(O)OP(=O)(O)O (single isomer, unassigned) [Analogue 14A]	EC50	11.2
[BH3-][P+](O)(OCC1OC(n2cc(OC)c(=O)[nH]c2=O)C(O)C1O)OP(=O)(O)OP(=O)(O)OCC1OC(n2cc(OC)c(=O)[nH]c2=O)C(O)C1O (single isomer, unassigned) [Analogue 16B]	EC50	2.2
[BH3-][P+](O)(OP(=O)(O)OC[C@H]1O[C@@H](n2cc(OC)c(=O)[nH]c2=O)[C@H](O)[C@@H]1O)OP(=O)(O)OC[C@H]1O[C@@H](n2cc(OC)c(=O)[nH]c2=O)[C@H](O)[C@@H]1O	EC50	0.2

(I) O=c1ccn([C@@H]2O[C@H](COP(=O)(O)OP(=O)(O)O)[C@@H](O)[C@H]2O)c(=O)[nH]1 [UDP, reference compound]
(II) [BH3-][P+](O)(OC[C@H]1O[C@@H](n2cc(OC)c(=O)[nH]c2=O)[C@H](O)[C@@H]1O)OP(=O)(O)OP(=O)(O)O (single isomer, unassigned) [Analogue 14B]
Lab note: check whether I or II has the lower measured EC50. Mark your answer with the label of the selected entry.
I
(I: 0.15 µM, II: 20.1 µM)
